Give Bliss excess for every item shown.
System: JHH-6 (Hepatocellular Carcinoma);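 further: after 72 h of two-drug dosing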
Test: Bliss excess, mean over the matrix (fraction); higher = more synergy

Readout Bliss excess for Cc1c2c(nn1C)CSCc1cc(n(C)n1)CSc1cc(c3ccccc3c1)OCCCc1c(C(=O)O)n(C)c3c-2c(Cl)ccc13 [AZD5991] + C=CCn1c(=O)c2cnc(Nc3ccc(N4CCN(C)CC4)cc3)nc2n1-c1cccc(C(C)(C)O)n1 [AZD1775] (first compound max 1 µM, partner max 1 µM) , test system JHH-6 (Hepatocellular Carcinoma), was -0.0647

Readout Bliss excess for CC1(C)CCC(CN2CCN(c3ccc(C(=O)NS(=O)(=O)c4ccc(NCC5CCOCC5)c([N+](=O)[O-])c4)c(Oc4cnc5[nH]ccc5c4)c3)CC2)=C(c2ccc(Cl)cc2)C1 [Venetoclax] + C[C@@H]1COCCN1C2=NC(=NC(=C2)C3(CC3)[S@](=N)(=O)C)C4=C5C=CNC5=NC=C4 [AZD6738] (first compound max 1 µM, 7x7, partner max 10 µM) , test system JHH-6 (Hepatocellular Carcinoma), was -0.03

Readout Bliss excess for Cc1c2c(nn1C)CSCc1cc(n(C)n1)CSc1cc(c3ccccc3c1)OCCCc1c(C(=O)O)n(C)c3c-2c(Cl)ccc13 [AZD5991] + CCN(CCO)CCCOc1ccc2c(Nc3cc(CC(=O)Nc4cccc(F)c4)[nH]n3)ncnc2c1 [AZD2811] (first compound max 1 µM, 7x7, partner max 1 µM) , test system JHH-6 (Hepatocellular Carcinoma), was -0.0298

====

System: SNU-61 (Colorectal Carcinoma)
Assay: combination Emax (second highest fraction inhibited in the dose matrix, 72 h); higher = more inhibition; extreme values may be limits of the assay
Reported property: combination Emax

Record CCN(CCO)CCCOc1ccc2c(Nc3cc(CC(=O)Nc4cccc(F)c4)[nH]n3)ncnc2c1 [AZD2811] + C=CCn1c(=O)c2cnc(Nc3ccc(N4CCN(C)CC4)cc3)nc2n1-c1cccc(C(C)(C)O)n1 [AZD1775] (first compound max 1 µM, partner max 1 µM) . Reported combination Emax: 0.212

Record Cc1c2c(nn1C)CSCc1cc(n(C)n1)CSc1cc(c3ccccc3c1)OCCCc1c(C(=O)O)n(C)c3c-2c(Cl)ccc13 [AZD5991] + C[C@@H]1COCCN1C2=NC(=NC(=C2)C3(CC3)[S@](=N)(=O)C)C4=C5C=CNC5=NC=C4 [AZD6738] (first compound max 1 µM, 7x7, partner max 10 µM) . Reported combination Emax: 0.349

Record CN(CCO)CC[C@H](CSc1ccccc1)Nc1ccc(S(=O)(=O)NC(=O)c2ccc(N3CCC([C@@H](O)c4ccccc4-c4ccc(Cl)cc4)CC3)cc2)cc1S(=O)(=O)C(F)(F)F [AZD4320] + Cc1cc2ncnn2cc1Nc1ncc2c(n1)n(C1CCOCC1)c(=O)n2C [AZD7648] (first compound max 1 µM, 7x7, partner max 10 µM) . Reported combination Emax: 0.107

Record CN(CCO)CC[C@H](CSc1ccccc1)Nc1ccc(S(=O)(=O)NC(=O)c2ccc(N3CCC([C@@H](O)c4ccccc4-c4ccc(Cl)cc4)CC3)cc2)cc1S(=O)(=O)C(F)(F)F [AZD4320] + C[C@@H]1COCCN1C2=NC(=NC(=C2)C3(CC3)[S@](=N)(=O)C)C4=C5C=CNC5=NC=C4 [AZD6738] (first compound max 1 µM, 7x7, partner max 10 µM) . Reported combination Emax: 0.365

Record COc1nnc2ccc(N3CCC(c4ccc(OCCN5CCN(C)C(=O)[C@H]5C)cc4)CC3)nn12 [AZD5153] + CN(CC[C@H](CSC1=CC=CC=C1)NC2=C(C=C(C=C2)S(=O)(=O)NC(=O)C3=CC=C(C=C3)N4CCC(CC4)[C@H](C5=CC=CC=C5C6=CC=C(C=C6)Cl)O)S(=O)(=O)C(F)(F)F)CCO [AZD4320] (first compound max 1 µM, 7x7, partner max 1 µM) . Reported combination Emax: 0.392

Record C=CCn1c(=O)c2cnc(Nc3ccc(N4CCN(C)CC4)cc3)nc2n1-c1cccc(C(C)(C)O)n1 [AZD1775] + C[C@@H]1COCCN1C2=NC(=NC(=C2)C3(CC3)[S@](=N)(=O)C)C4=C5C=CNC5=NC=C4 [AZD6738] (first compound max 1 µM, partner max 10 µM) . Reported combination Emax: 0.404

Record CN(CCO)CC[C@H](CSc1ccccc1)Nc1ccc(S(=O)(=O)NC(=O)c2ccc(N3CCC([C@@H](O)c4ccccc4-c4ccc(Cl)cc4)CC3)cc2)cc1S(=O)(=O)C(F)(F)F [AZD4320] + CCN(CCO)CCCOc1ccc2c(Nc3cc(CC(=O)Nc4cccc(F)c4)[nH]n3)ncnc2c1 [AZD2811] (first compound max 1 µM, 7x7, partner max 1 µM) . Reported combination Emax: 0.126
